- MEASURED ON: MBP-FoxP1dN (Mus musculus, UniProt P58462 326-579)
- Sequence: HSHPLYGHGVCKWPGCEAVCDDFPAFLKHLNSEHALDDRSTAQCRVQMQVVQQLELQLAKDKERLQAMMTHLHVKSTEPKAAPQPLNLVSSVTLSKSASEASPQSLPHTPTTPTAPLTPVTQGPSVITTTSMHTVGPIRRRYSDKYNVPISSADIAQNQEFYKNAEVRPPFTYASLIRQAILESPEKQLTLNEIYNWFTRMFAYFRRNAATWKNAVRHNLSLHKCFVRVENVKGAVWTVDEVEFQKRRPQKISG
- METHOD NOTES: PD-seq (MBP pull-down with sequencing); 20 mM Tris-HCl pH 7.5, 100 mM NaCl, 1.5 mM MgCl2, 0.4 uM protein, 0.1 uM dsDNA library, 30 min, room temperature, amylose pull-down; high values mean tight binding
- DETAILS: protein: recombinant; tags: His6-MBP; chain copies: 2; dsDNA, one strand shown
In all, about 16,000 sequences were measured (“rpm ratio (pull-down/input)”: median about 0.94, highest 2% from about 1.7 on). Many of the other results were omitted from the sample, so the highest values are more common in it than they were.
Consider the following sequences; for each one, report its binding signal.

Completed entries (count: 5):
INSERT INTO assay_data (polymer_sequence, measured_on, reported_property, val) VALUES
  ('GATGATTGTTCTCCCAGCTGATGAATTCCAACTTTCGAGTAAACAAATTTTCCTAATCTTTCTGTTCAAGCGCCATCTAC', 'MBP-FoxP1dN (Mus musculus, UniProt P58462 326-579)', 'binding signal', '0.884 RPM ratio (pull-down/input)'),
  ('GATGATTGTTCTCCCAGCTGATGAATTGTCGTATTCGAGTAAACAAATTTTCCTAATCTTTCTGTTCAAGCGCCATCTAC', 'MBP-FoxP1dN (Mus musculus, UniProt P58462 326-579)', 'binding signal', '1.14 RPM ratio (pull-down/input)'),
  ('GATGATTGTTCTCCCAGCTGATGAATTAGGTTCATCGAGTAAACAAATTTTCCTAATCTTTCTGTTCAAGCGCCATCTAC', 'MBP-FoxP1dN (Mus musculus, UniProt P58462 326-579)', 'binding signal', '0.921 RPM ratio (pull-down/input)'),
  ('GATGATTGTTCTCCCAGCTGATGAATTCTTTGCATCGAGTAAACAAATTTTCCTAATCTTTCTGTTCAAGCGCCATCTAC', 'MBP-FoxP1dN (Mus musculus, UniProt P58462 326-579)', 'binding signal', '1.26 RPM ratio (pull-down/input)'),
  ('GATGATTGTTCTCCCAGCTGATGAATTAGGAACGTCGAGTAAACAAATTTTCCTAATCTTTCTGTTCAAGCGCCATCTAC', 'MBP-FoxP1dN (Mus musculus, UniProt P58462 326-579)', 'binding signal', '0.882 RPM ratio (pull-down/input)');

Parameter requested: binding signal. Apply to each item below.
1. GATGATTGTTCTCCCAGCTGATGAATTTGATAGCTCGAGTAAACAAATTTTCCTAATCTTTCTGTTCAAGCGCCATCTAC
2. GATGATTGTTCTCCCAGCTGATGAATTATTGCCATCGAGTAAACAAATTTTCCTAATCTTTCTGTTCAAGCGCCATCTAC
3. GATGATTGTTCTCCCAGCTGATGAATTCGTATTGTCGAGTAAACAAATTTTCCTAATCTTTCTGTTCAAGCGCCATCTAC
4. GATGATTGTTCTCCCAGCTGATGAATTCTCTTTGTCGAGTAAACAAATTTTCCTAATCTTTCTGTTCAAGCGCCATCTAC
5. GATGATTGTTCTCCCAGCTGATGAATTCTATCTGTCGAGTAAACAAATTTTCCTAATCTTTCTGTTCAAGCGCCATCTAC
6. GATGATTGTTCTCCCAGCTGATGAATTGTTTGCATCGAGTAAACAAATTTTCCTAATCTTTCTGTTCAAGCGCCATCTAC
7. GATGATTGTTCTCCCAGCTGATGAATTGACAGTTTCGAGTAAACAAATTTTCCTAATCTTTCTGTTCAAGCGCCATCTAC
8. GATGATTGTTCTCCCAGCTGATGAATTCCTAATCTCGAGTAAACAAATTTTCCTAATCTTTCTGTTCAAGCGCCATCTAC

0.868 RPM ratio (pull-down/input)
1.24 RPM ratio (pull-down/input)
2.07 RPM ratio (pull-down/input)
0.834 RPM ratio (pull-down/input)
0.875 RPM ratio (pull-down/input)
2.26 RPM ratio (pull-down/input)
1.26 RPM ratio (pull-down/input)
0.834 RPM ratio (pull-down/input)

Respectfully, I request binding signal for each entry included below.
1. GATGATTGTTCTCCCAGCTGATGAATTGGGTGCTTCGAGTAAACAAATTTTCCTAATCTTTCTGTTCAAGCGCCATCTAC
2. GATGATTGTTCTCCCAGCTGATGAATTCGTATTTTCGAGTAAACAAATTTTCCTAATCTTTCTGTTCAAGCGCCATCTAC
3. GATGATTGTTCTCCCAGCTGATGAATTTCTTGATTCGAGTAAACAAATTTTCCTAATCTTTCTGTTCAAGCGCCATCTAC

1. 0.861 RPM ratio (pull-down/input)
2. 1.67 RPM ratio (pull-down/input)
3. 1.01 RPM ratio (pull-down/input)

Dear colleague, could you send me binding signal for each of the items below? Thanks.
1. GATGATTGTTCTCCCAGCTGATGAATTCCTATTGTCGAGTAAACAAATTTTCCTAATCTTTCTGTTCAAGCGCCATCTAC
2. GATGATTGTTCTCCCAGCTGATGAATTTATCCCTTCGAGTAAACAAATTTTCCTAATCTTTCTGTTCAAGCGCCATCTAC

["2.02 RPM ratio (pull-down/input)", "1.05 RPM ratio (pull-down/input)"]

Please give binding signal for each item listed below.
1. GATGATTGTTCTCCCAGCTGATGAATTATTGAGCTCGAGTAAACAAATTTTCCTAATCTTTCTGTTCAAGCGCCATCTAC
2. GATGATTGTTCTCCCAGCTGATGAATTTGTCTATTCGAGTAAACAAATTTTCCTAATCTTTCTGTTCAAGCGCCATCTAC

0.941 RPM ratio (pull-down/input)
1.28 RPM ratio (pull-down/input)

// input: 8 sequences below; output: binding signal for each
1. GATGATTGTTCTCCCAGCTGATGAATTATATCGATCGAGTAAACAAATTTTCCTAATCTTTCTGTTCAAGCGCCATCTAC
2. GATGATTGTTCTCCCAGCTGATGAATTTCCGAGGTCGAGTAAACAAATTTTCCTAATCTTTCTGTTCAAGCGCCATCTAC
3. GATGATTGTTCTCCCAGCTGATGAATTTTTTGCATCGAGTAAACAAATTTTCCTAATCTTTCTGTTCAAGCGCCATCTAC
4. GATGATTGTTCTCCCAGCTGATGAATTATTTGCATCGAGTAAACAAATTTTCCTAATCTTTCTGTTCAAGCGCCATCTAC
5. GATGATTGTTCTCCCAGCTGATGAATTTTAGGGATCGAGTAAACAAATTTTCCTAATCTTTCTGTTCAAGCGCCATCTAC
6. GATGATTGTTCTCCCAGCTGATGAATTTGCATCTTCGAGTAAACAAATTTTCCTAATCTTTCTGTTCAAGCGCCATCTAC
7. GATGATTGTTCTCCCAGCTGATGAATTATCTGTCTCGAGTAAACAAATTTTCCTAATCTTTCTGTTCAAGCGCCATCTAC
8. GATGATTGTTCTCCCAGCTGATGAATTTGTTGCATCGAGTAAACAAATTTTCCTAATCTTTCTGTTCAAGCGCCATCTAC

0.956 RPM ratio (pull-down/input)
0.721 RPM ratio (pull-down/input)
1.45 RPM ratio (pull-down/input)
1.89 RPM ratio (pull-down/input)
0.823 RPM ratio (pull-down/input)
1.89 RPM ratio (pull-down/input)
0.945 RPM ratio (pull-down/input)
1.84 RPM ratio (pull-down/input)

Lab note: measured binding signal of GATGATTGTTCTCCCAGCTGATGAATTCGATTGCTCGAGTAAACAAATTTTCCTAATCTTTCTGTTCAAGCGCCATCTAC was 0.842 RPM ratio (pull-down/input)

Value source: paper PMC12820563
